Hey, just so you know, these numbers are from PubChem BioAssay AID1159580.

- EXPERIMENT_DESCRIPTION: chemical genetic growth profiling, strain panel (AID 1159580);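 note: tested at 20 µM; growth read once vehicle control cultures reached saturation at 30 °C; 1 = growth at the plate median or of vehicle wells; lower values mean less growth of the strain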
- MEASUREMENT_SETUP: S. cerevisiae deletion strains, growth OD, locus YHR094C, strain hxt1, hits give low values
Among all 5,500 compounds or so, about 2,000 (36%) were called active. About 18% were inconclusive and are not listed. The list shows a part of the results.
# note: exactly 1 is not below, so it is no (0); use yes (1) for normalized growth strictly under it

>  <COMPOUND>
C[C@H](CCC(=O)O)[C@H]1CCC2C3C(CC[C@@]21C)[C@@]1(C)CC[C@@H](O)C[C@H]1C[C@H]3O (stereo partly drawn)

>  <CLASS_NAME>
no (0)

$$$$
>  <COMPOUND>
C=C[C@H]1CN2CC[C@H]1C[C@@H]2[C@H](O)c1ccnc2ccccc12

>  <CLASS_NAME>
yes (1)

$$$$
>  <COMPOUND>
CCN(CCCc1ccccc1)CCCc1ccccc1

>  <CLASS_NAME>
no (0)

$$$$
